- SYSTEM UNDER TEST: HLA-A*03:01
- PROTOCOL TEXT: IEDB peptide-MHC binding, purified MHC/competitive/fluorescence; filed as Kd, often an IC50 or EC50 that approximates it; bounds were set here for any values at or beyond the usual limits of such assays
- EXPERIMENTAL PARAMETERS: source organism: Mycobacterium tuberculosis variant bovis BCG str. Pasteur 1173P2
pKd: −log10 of the molar value.

| SEQUENCE TEXT | pKd |
| --- | --- |
| HLTRVGPYL | ≤ 4.70 |

###

- SYSTEM UNDER TEST: HLA-B*58:01
- PROTOCOL TEXT: IEDB peptide-MHC binding, purified MHC/direct/fluorescence; filed as Kd, often an IC50 or EC50 that approximates it; bounds were set here for any values at or beyond the usual limits of such assays
- EXPERIMENTAL PARAMETERS: source organism: Campylobacter jejuni RM1221
REPORTED PROPERTY: Kd

| SEQUENCE TEXT | SYSTEM UNDER TEST | REPORTED PROPERTY | VAL |
| --- | --- | --- | --- |
| IYDYLRLLY | HLA-B*58:01 | Kd | ≥ 20 µM |
